Biological Activity, S. pneumoniae ATCC700676* reference
Test system: S. pneumoniae
ASSAY: Biological activity against bacterial strains: S. pneumoniae
Format: cell-based, Streptococcus pneumoniae
Set-up: unit not given here
STATED_CONDITIONS: strain ATCC700676, macrolide resistant strain
RESULT_TYPE: Biological Activity, S. pneumoniae ATCC700676*

{"columns": ["COMPOUND", "QUANTITATIVE_READOUT"],
 "data": [
  ["CCC1OC(=O)CC(O)C(C)C(OC2OC(C)C(O)C(N(C)C)C2O)C(CC=O)CC(C)C(=NOCCCCOc2ccc3ncccc3c2)C=CC(C)=CC1CO (stereo not drawn)", 0.025],
  ["CCC1OC(=O)CC(O)C(C)C(OC2OC(C)C(O)C(N(C)C)C2O)C(CCN2CC(C)CC(C)C2)CC(C)C(=O)C=CC(C)=CC1CO (stereo not drawn) [Compound 8, 20-Deoxy(3,5-dimethyl-1-piperidine)OMT, reference compound]", 1.56],
  ["CCC1OC(=O)CC(O)C(C)C(OC2OC(C)C(O)C(N(C)C)C2O)C(CC=O)CC(C)C(=NOCCCCc2cnc3ccccc3c2)C=CC(C)=CC1CO (stereo not drawn)", 0.025]
]}

* * *

System: S. pneumoniae
ASSAY: Biological activity against bacterial strains: S. pneumoniae
Format: cell-based, Streptococcus pneumoniae
Parameters: unit not given here
STATED_CONDITIONS: strain ATCC700676, macrolide resistant strain
RESULT_TYPE: Biological Activity, S. pneumoniae ATCC700676*

{"columns": ["COMPOUND", "QUANTITATIVE_READOUT"],
 "data": [
  ["CCC1OC(=O)CC(O)C(C)C(OC2OC(C)C(O)C(N(C)C)C2O)C(CCN2CC(C)CC(C)C2)CC(C)C(=NOCc2ccc(F)cc2)C=CC(C)=CC1CO (stereo not drawn) [Compound W]", 0.39],
  ["CC[C@H]1OC(=O)C[C@@H](O)[C@H](C)[C@@H](O[C@@H]2O[C@H](C)[C@@H](O)[C@H](N(C)C)[C@H]2O)[C@@H](CC=O)C[C@@H](C)C(=O)/C=C/C(C)=C/[C@@H]1CO [OMT, 5-O-mycaminosyltylonolide, reference compound]", 0.78],
  ["CC[C@H]1OC(=O)C[C@@H](O)[C@H](C)[C@@H](OC2OC(C)C(O)C(N(C)C)C2O)[C@@H](CC=O)C[C@@H](C)C(=N\\OCCOc2ccccc2)/C=C/C(C)=C/C1CO (stereo partly drawn) [Compound IIb]", 0.025]
]}

* * *

System: S. pneumoniae
ASSAY: Biological activity against bacterial strains: S. pneumoniae
Type: cell-based, Streptococcus pneumoniae
Parameters: unit not given here
STATED_CONDITIONS: strain ATCC49619
Listing of entries alongside the reported Biological Activity, S. pneumoniae ATCC49619.
RESULT_TYPE: Biological Activity, S. pneumoniae ATCC49619

{"columns": ["MOLECULE", "RESULT"],
 "data": [
  ["CC[C@H]1OC(=O)C[C@@H](O)[C@H](C)[C@@H](OC2OC(C)C(O)C(N(C)C)C2O)[C@@H](CC=O)C[C@@H](C)C(=N\\OCc2ccc(F)cc2)/C=C/C(C)=C/C1CO (stereo partly drawn) [Compound IIc]", 0.2],
  ["CCC1OC(=O)CC(O)C(C)C(OC2OC(C)C(O)C(N(C)C)C2O)C(CCN2CC(C)CC(C)C2)CC(C)C(=NOCCCCOc2ccc3ncccc3c2)C=CC(C)=CC1CO (single isomer, unassigned) [Compound T]", 6.25],
  ["CCC1OC(=O)CC(O)C(C)C(OC2OC(C)C(O)C(N(C)C)C2O)C(CCN2CC(C)CC(C)C2)CC(C)C(=NOCCCOc2ccc3ncccc3c2)C=CC(C)=CC1CO (stereo not drawn) [Compound R]", 6.25],
  ["CCC1OC(=O)CC(O)C(C)C(OC2OC(C)C(O)C(N(C)C)C2O)C(CCN2CC(C)CC(C)C2)CC(C)C(=NOCCCCOc2ccc3ncccc3c2)C=CC(C)=CC1COC1OC(C)C(O)C(OC)C1OC (single isomer, unassigned) [Compound N]", 0.098],
  ["CCC1OC(=O)CC(O)C(C)C(OC2OC(C)C(O)C(N(C)C)C2O)C(CC=O)CC(C)C(=NOCC#Cc2cnc3ccccc3c2)C=CC(C)=CC1CO (single isomer, unassigned) [Compound D]", 0.049],
  ["CCC1OC(=O)CC(O)C(C)C(OC2OC(C)C(O)C(N(C)C)C2O)C(CC=O)CC(C)C(=NOCCCOc2ccc3ncccc3c2)C=CC(C)=CC1COC1OC(C)C(O)C(OC)C1OC (single isomer, unassigned) [Compound AA]", 6.25],
  ["CCC1OC(=O)CC(O)C(C)C(OC2OC(C)C(O)C(N(C)C)C2O)C(CCN2CC(C)CC(C)C2)CC(C)C(=NOCc2ccc(F)cc2)C=CC(C)=CC1CO (stereo not drawn) [Compound W]", 0.39],
  ["CC[C@H]1OC(=O)[C@H](C)[C@@H](O[C@H]2C[C@@](C)(OC)[C@@H](O)[C@H](C)O2)[C@H](C)[C@@H](O[C@@H]2O[C@H](C)C[C@H](N(C)C)[C@H]2O)[C@](C)(O)C[C@@H](C)C(=O)[C@H](C)[C@@H](O)[C@]1(C)O [Ery A, erythromycin A, reference compound]", 0.049],
  ["CCC1OC(=O)CC(O)C(C)C(OC2OC(C)C(O)C(N(C)C)C2O)C(CCN2CC(C)CC(C)C2)CC(C)C(=NOCc2ccc(F)cc2)C=CC(C)=CC1COC1OC(C)C(O)C(OC)C1OC (single isomer, unassigned) [Compound P]", 0.78]
]}
